Biological target: TAS2R39 (Homo sapiens)
Construct: TAS2R cDNA cloned 3′ of the first 45 amino acids of the rat somatostatin receptor 3
Sequence (P59534 1-338): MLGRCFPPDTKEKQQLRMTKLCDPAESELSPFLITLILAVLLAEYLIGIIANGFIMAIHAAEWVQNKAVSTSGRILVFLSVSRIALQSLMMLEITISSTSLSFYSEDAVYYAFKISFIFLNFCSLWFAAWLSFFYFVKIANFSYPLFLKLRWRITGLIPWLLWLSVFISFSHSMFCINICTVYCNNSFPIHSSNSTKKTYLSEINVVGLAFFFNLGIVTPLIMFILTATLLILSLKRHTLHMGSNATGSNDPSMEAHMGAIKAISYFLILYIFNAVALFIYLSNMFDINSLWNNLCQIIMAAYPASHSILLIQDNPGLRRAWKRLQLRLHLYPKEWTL
Test: FLIPR calcium imaging in transfected HEK293 PEAKrapid Gα[…]i/o44 cells, dose-response with mock control
pEC50: −log10 of the molar value.
test-readout: pEC50

>>> observed_measurement("COc1cc(C=O)ccc1O [vanillin, 4-hydroxy-3-methoxybenzaldehyde]")
3.06
